test: 14C assay with IPTG-induced recombinant E. coli cells (14CO2 capture from [14C]-carboxyl-labeled dicamba); settings: IPTG-induced recombinant E. coli cells; [14C]-carboxyl-labeled dicamba; 14CO2 capture
ASSAY METRIC: Dicamba Decarboxylase Activity

Previously resolved entries follow.
{"columns": ["MOLECULE", "ASSAY METRIC", "OBSERVED RESULT"],
 "data": [
  ["19 (protein, listed as Talaromyces marneffei) MATPIITLEEHYISSAIRDASETDHYAVFPSQIISKLNTLSTERLQDLDNGHVSLQVISHGPGAQPPYLCQAANDELASAISANPTRFAGFALLPIAEPQLAVQELERCITQHKFVGALIDNHTNGQFYDDQKFWPVFEKAQELDAPIYVHPSYPDEESGVAAHYRGNYDDRIAAALGAYGWGWHSDTALSILRLFAAGLFDTYPNIKIIIGHMGEMLPFQLERVIGIASRFGRSRGLREVWTQNIWVTTSGMFALAPLACLLQTMPIERVLYSVDYPFSANEKGFAFLEEIKKSGLIKEGEDWERFLYKNAQELLKVNV", "Dicamba Decarboxylase Activity", "High"],
  ["46 (protein, listed as Rhodococcus opacus) MARIITLEEHYLDPAIAAASAPLARELSPDFAAAYDPASGLSYTPSAQVLQDLGQRRIADMDTHGISMQVLSCLTTQQVPADVAPDLVRAANDTAAAAVRAHPDRFAAFAALPTTAPDAAATELARCIDDLGFVGTMINGRTDGEFLDAPRFDPILATAAARNVPIYLHPAVPPRATSDSNYAGLAPLVTARLQTSAWGWHQETAVHFLHLVLSGVLDRYPNLQFILGHWGEMIPFYLDRLDEALPQAVTNLDRTISDYVRENVYITPSGMFNQAQLQYCVETLGVDRILYSVDYPFIGNDGAVSFLDEANLPDEAKHQIAHQNTEKLLGL", "Dicamba Decarboxylase Activity", "High"],
  ["59 (protein, alpha proteobacterium) MAPSVIDAHAHFLPGSLVTALRSRSDAPDIRTDSNGGESFGIYRTRMPYGRTYDALDVRLARMDELGVDRQILSLPGLFGIDSRPVSQALPLVRAFNDGVADLVRKHPDRFSGIAALPLADLDAAQEEYRRARGDLGLSGLILPGDTFVSVAAAERVRPLFELAATIGGLIFVHPGPLPDETGSAVDAPAPHTDSVVHRRVTVDIQNRMTEVMVTLALTDFLAPYPSVPVQVANLGGSLPFVIERMDHVYALRNPEAPPPSLSLRSLYVDAASLGPRAIALAAEVYGADRVLFGSDYPIFDDGRCLDAVRQTRLSPDARALIAGGNAARMLTQT", "Dicamba Decarboxylase Activity", "No"],
  ["73 (protein, listed as Sphaerobacter thermophilus) MARIDAHAHAQPPEYLDALLASGRYESVRDAEGRIVVRERGSRFLTITPQMHHPEQRVAEMDEAGIDMQILSVTTPQVYFLQGQAAVDLARRCNDYLADIVRSYPTRFRALASVPLTADPDAAVREFVRCLDDLGMVGAIIGSNIDGRPIDDPAFDAFYAEADRRATTLFIHPMVPAGIEVMNPYALAPLVGFMFDTTLAVSRLIFSGFFERYPRVKVLVGHLGAAVPYLAGRLDIGWRSYSDCQGIPHPPTEYIRRLYLDTVSFHAPALRCALETVGPDRIVFGSDYPHVIGDVGGAIASIQQALPATTHDGVLGHTAAELFGVSA", "Dicamba Decarboxylase Activity", "Low"],
  ["9 (protein, listed as Octadecabacter antarcticus) MATPKITFEEHFMAPGFEKHSEAFLKLIPRDQAEILTRRLGDFDGERIETMDRGGITRSIISLTGPGTQGEAVEKAVSAAQGANDFLAEKISKKPDRLGGLATLPMHDPDAAARELNRAVNDLGLQGCLVNTHTHGAYYEGTDYDPFWAEVEKLGVPFYLHPSNAYVTPHVLGGMPVLQGATWGWGVETGSHALRILFGGVFDRFPDVKLVLGHMGEALPFLRWRYDSRFGAYPMGVSLDRAPSAYFGSNILITTSGVCSHPSLIGAIGEMGADAVMFSVDYPYEDTDLAVEFIETAPLEDATRVKICHDNAARLFGMPTLAAKEGA", "Dicamba Decarboxylase Activity", "No"],
  ["102 (protein, listed as Lactobacillus plantarum) MATKTFKTLDDFLGTHFIYTYDNGWEYEWYAKNDHTVDYRIHGGMVAGRWVTDQKADIVMLTEGIYKISWTEPTGTDVALDFMPNEKKLHGTIFFPKWVEEHPEITVTYQNEHIDLMEQSREKYATYPKLVVPEFANITYMGDAGQNNEDVISEAPYKEMPNDIRNGKYFDQNYHRLNK", "Dicamba Decarboxylase Activity", "No"],
  ["94 (protein, listed as Bacillus thuringiensis) MANRGDSNMKSLVGVIMGSTSDWETMKYACDILDELNIPYEKKVVSAHRTPDYMFEYAETARERGLKVIIAGAGGAAHLPGMVAAKTNLPVIGVPVQSKALNGLDSLLSIVQMPGGVPVATVAIGKAGSTNAGLLAAQILGSFHDDIHDALELRREAIEKDVREGSELV", "Dicamba Decarboxylase Activity", "No"]
]}

Param item = 44 (protein, listed as Mycobacterium avium) MARIITVEEHFQHPEVSARVAELTGPAVEGLAEFGNAFSLDPDSTARLGGNRLAHMDQVGIDVQVVSHGNGSPGTLQHPEAVELCRRVNNDLAAQIAENPDRFRGFATLPLYDPAAAAEELRRCVGDLGFVGALIAGSYDGLFLDDERFDPILTAAEAVDFPIYVHPGLPEAPVSQRYYAGSWPASVHMMFSGPAFGWHAEAGIHIVRLILSGALDRHPTLKLLSGHWGELAAFYLERLDETLGLLPTGLERAPSDYYRQQVWITPSGMYNQNQLNFMTAELGAQRIIYSEDFPYVVRDNVSTFLEQAGLSEADTHAIAHTNAEALLRI ; retrieve measured Dicamba Decarboxylase Activity.
High
